target-desc: T1, CD123 (Homo sapiens (Human), UniProt P26951 19-305, limits assumed)
T1 construct: The CD123 construct used in the ELISA is not described; also called CD123-Signal
T1 sequence: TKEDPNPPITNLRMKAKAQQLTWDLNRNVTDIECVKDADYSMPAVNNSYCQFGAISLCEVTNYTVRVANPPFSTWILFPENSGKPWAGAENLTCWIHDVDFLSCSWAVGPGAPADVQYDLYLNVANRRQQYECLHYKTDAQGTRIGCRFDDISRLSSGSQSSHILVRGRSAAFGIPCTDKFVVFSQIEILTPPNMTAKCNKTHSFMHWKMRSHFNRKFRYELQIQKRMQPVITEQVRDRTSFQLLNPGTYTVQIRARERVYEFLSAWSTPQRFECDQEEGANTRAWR
experiment-description: ELISA
Design: unit not given here
Each record here notes measured ELISA_avg.
readout-type: ELISA_avg

D domain of SEQ ID NO: 500 (designed binder) MGSWEFFKEVLAEIKYDLEALGGSEAELAWFETDIAGFEIDLQVYKGKGNPEVEALRKEAAAIRDELQAYRHN = 8.2
D domain of SEQ ID NO: 367 (designed binder) MGSWDEFAWRLDVIFARLGALGGSEAELAAFEKEIAAFESELQAYKGKGNPEVEELRKNAAQIRDGLQAYRHN = 4.6
D domain of SEQ ID NO: 355 (designed binder) MGSWYEFETRLEAIYDRLWALGGSEAELAAFEKEIAAFESELQAYKGKGNPEVELLRVEAAEIREDLQAYRHN = 3.2
D domain of SEQ ID NO: 460 (designed binder) MGSWIEFEVRLDAIYNRLAALGGSEAELAAFEKEIAAFESELQAYKGKGNPEVERLRRYAANIRHELQAYRHN = 20.8
D domain of SEQ ID NO: 447 (designed binder) MGSWVEFHLRLDAIYGRLMALGGSEAELAAFEKEIAAFESELQAYKGKGNPEVENLRVWAANIRNELQAYRHN = 17.5
